Cited source for all entries: ChEMBL document CHEMBL3132807

- protocolDescription: Cytotoxicity against human THLE cells assessed as ATP depletion after 24 hrs by CellTitre-Glo assay
- Format: functional, cell-based
observedProperty: pEC50
# pEC50: negative log10 of molar concentration; output just the value

Sample answers from the record:
1. CCOc1ccc2nc3c(=O)n(C)c(=O)nc-3sc2c1 : 4.10
2. Cn1nc(-c2cccs2)nc2c(=O)n(C)c(=O)nc1-2 : 5.54
3. Nc1ccc2nc3c(=O)[nH]c(=O)nc-3[nH]c2c1 : 3.60

QUERY: Recorded pEC50 for Cn1nc(/C=C/c2ccccc2)nc2c(=O)n(C)c(=O)nc1-2 , please?
RESULT: 5.92
